# Test system: HCC-44
# Experiment: relative viability (nuclei count vs DMSO), 5 days (fraction); higher = more cells survive
# Condition Set: first compound 0.01581 µM
Please respond with reported relative viability for every item in the list.
Keep it simple and answer with nothing but the number.

Req: Quickly give me recorded relative viability for COc1cc2nccc(Oc3ccc(NC(=O)Nc4cc(C)on4)c(Cl)c3)c2cc1OC [Tivozanib] + CS(=O)(=O)N1CCN(Cc2cc3nc(-c4cccc5[nH]ncc45)nc(N4CCOCC4)c3s2)CC1 [Pictilisib] (partner 1 µM)
Resp: 0.471

Req: Quickly give me recorded relative viability for Nc1ccn([C@@H]2O[C@H](CO)[C@@H](O)[C@@H]2O)c(=O)n1 [Cytarabine] + Cc1cc(Nc2cc(N3CCN(C)CC3)nc(Sc3ccc(NC(=O)C4CC4)cc3)n2)n[nH]1 [Tozasertib] (partner 0.1 µM)
Resp: 0.928

Req: Quickly give me recorded relative viability for Nc1ccn([C@@H]2O[C@H](CO)[C@@H](O)[C@@H]2O)c(=O)n1 [Cytarabine] + CC(C)C[C@H](NC(=O)[C@H](Cc1ccccc1)NC(=O)c1cnccn1)B(O)O [Bortezomib] (partner 0.002 µM)
Resp: 0.895

Req: Quickly give me recorded relative viability for COc1cc2nccc(Oc3ccc(NC(=O)Nc4cc(C)on4)c(Cl)c3)c2cc1OC [Tivozanib] + Cc1cc(Nc2cc(N3CCN(C)CC3)nc(Sc3ccc(NC(=O)C4CC4)cc3)n2)n[nH]1 [Tozasertib] (partner 0.1 µM)
Resp: 0.9

====

Please respond with reported relative viability for every item in the list.
# Tested on: NCI-H1793
# Experiment: relative viability (nuclei count vs DMSO), 5 days (fraction); higher = more cells survive
# Condition Set: first compound 0.05 µM
Keep it simple and answer with nothing but the number.

Req: Quickly give me recorded relative viability for Nc1ccn([C@@H]2O[C@H](CO)[C@@H](O)[C@@H]2O)c(=O)n1 [Cytarabine] + C[C@]1(O)C[C@@H](c2nc(-c3ccc4ccc(-c5ccccc5)nc4c3)c3c(N)nccn32)C1 [Linsitinib] (partner 1 µM)
Resp: 0.89

Req: Quickly give me recorded relative viability for Nc1ccn([C@@H]2O[C@H](CO)[C@@H](O)[C@@H]2O)c(=O)n1 [Cytarabine] + Cc1cc(Nc2cc(N3CCN(C)CC3)nc(Sc3ccc(NC(=O)C4CC4)cc3)n2)n[nH]1 [Tozasertib] (partner 0.1 µM)
Resp: 0.333

Req: Quickly give me recorded relative viability for COc1cc2nccc(Oc3ccc(NC(=O)Nc4cc(C)on4)c(Cl)c3)c2cc1OC [Tivozanib] + Nc1nc2[nH]cc(CCc3ccc(C(=O)N[C@@H](CCC(=O)O)C(=O)O)cc3)c2c(=O)[nH]1 [Pemetrexed] (partner 0.2 µM)
Resp: 1.04

Req: Quickly give me recorded relative viability for COc1cc2nccc(Oc3ccc(NC(=O)Nc4cc(C)on4)c(Cl)c3)c2cc1OC [Tivozanib] + CS(=O)(=O)CCNCc1ccc(-c2ccc3ncnc(Nc4ccc(OCc5cccc(F)c5)c(Cl)c4)c3c2)o1 [Lapatinib] (partner 2 µM)
Resp: 0.696

====

Please respond with reported relative viability for every item in the list.
# Test system: NCI-H1666
# Experiment: relative viability (nuclei count vs DMSO), 5 days (fraction); higher = more cells survive
# Condition Set: first compound 0.04 µM

Req: Quickly give me recorded relative viability for Cc1sc2c(c1C)C(c1ccc(Cl)cc1)=N[C@@H](CC(=O)OC(C)(C)C)c1nnc(C)n1-2 [JQ1] + O=C(CCCCCCC(=O)Nc1ccccc1)NO [Vorinostat] (partner 1 µM)
Resp: 0.972

Req: Quickly give me recorded relative viability for Cc1sc2c(c1C)C(c1ccc(Cl)cc1)=N[C@@H](CC(=O)OC(C)(C)C)c1nnc(C)n1-2 [JQ1] + N=C(N)NC(=N)NCCc1ccccc1 [Phenformin] (partner 250 µM)
Resp: 0.572

Req: Quickly give me recorded relative viability for Cc1sc2c(c1C)C(c1ccc(Cl)cc1)=N[C@@H](CC(=O)OC(C)(C)C)c1nnc(C)n1-2 [JQ1] + Nc1ncn([C@H]2C[C@H](O)[C@@H](CO)O2)c(=O)n1 [Decitabine] (partner 2 µM)
Resp: 0.763

Req: Quickly give me recorded relative viability for Cc1sc2c(c1C)C(c1ccc(Cl)cc1)=N[C@@H](CC(=O)OC(C)(C)C)c1nnc(C)n1-2 [JQ1] + O=C(c1cc(Cc2n[nH]c(=O)c3ccccc23)ccc1F)N1CCN(C(=O)C2CC2)CC1 [Olaparib] (partner 8 µM)
Resp: 0.708

Req: Quickly give me recorded relative viability for Cc1sc2c(c1C)C(c1ccc(Cl)cc1)=N[C@@H](CC(=O)OC(C)(C)C)c1nnc(C)n1-2 [JQ1] + Cc1cc(Nc2cc(N3CCN(C)CC3)nc(Sc3ccc(NC(=O)C4CC4)cc3)n2)n[nH]1 [Tozasertib] (partner 0.1 µM)
Resp: 0.569

The origin of these recorded values is the supplement of paper PMC10307832.
